tested on: ALOMY: Alopecurus myosuroides; test: Pre-emergence herbicidal effect; format: in vivo; settings: Table 4b; pre-emergence as titled; dosage 80 g of a.i./ha
Would you mind telling me the reported Herbicidal efficacy against ALOMY of each entry?
Just the number, please, no unit after it.

I'd like to know its Herbicidal efficacy against ALOMY. The compound in question is Cc1ccc2c(c1)C(Nc1ncc(C(C)(C)O)c(C)n1)CCC2 (racemic) [Example 1.52]
90

What about Cc1cc2c(s1)CCCC2Nc1ncc(C(C)O)c(C)n1 (stereo not shown) [drawing 19, reference compound] ?
10

Now give it for Cc1ccc2c(c1)[C@H](Nc1ncc(C(C)O)c(C)n1)CCC2 (stereo partly shown) [Example 1.48] too.
50

Repeat for the following compound: Cc1cc2c(s1)CCCC2Nc1ncc(C(C)(C)O)c(C)n1 (stereo not shown) [drawing 18, reference compound]
20

----------
test system: VERPE: Veronica persica; assay: Pre-emergence herbicidal effect; format: in vivo; details: dosage 320 g/ha
reported.property: Herbicidal action against VERPE (%)
Hi! Could you send only the number? It should be in %, unit omitted.

I'd like to know its Herbicidal action against VERPE. The molecule in question is CCc1ccc2c(c1)[C@H](Nc1ncc(C(C)(C)O)c(C)n1)CC2 [Example 1.57]
100

Can you handle Cc1ccc2c(c1)[C@H](Nc1ncc(C(C)O)c(C)n1)CCO2 (stereo partly drawn) [Example 1.49] next?
100

Cool, now COc1cccc2c1CCCC2Nc1ncc(C(C)(C)O)c(C)n1 (racemic) [Example 1.44]
100

Another molecule to look at: Cc1ccc2c(c1)[C@H](Nc1ncc(C(C)O)c(C)n1)CCC2 (stereo partly drawn) [Example 1.48]
100

How about Cc1ccc2c(c1)[C@H](Nc1ncc(C(C)(O)CC(C)C)cn1)[C@@H](C)C2 (stereo partly drawn) [Example 1.25] ?
100

Also check Cc1ccc2c(c1)[C@H](Nc1ncc(C(C)O)cn1)[C@@H](C)C2 (stereo partly drawn) [Example 1.2]
100

Same read-out for Cc1nc(N[C@@H]2CCc3ccccc32)ncc1C(C)O (stereo partly drawn) [Example 1.47] ?
100

Moving on to the next molecule: Cc1ccc2c(c1)[C@H](Nc1ncc(C(C)(C)O)c(C)n1)CC2 [Example 1.12]
100

Same question, Cc1ccc2c(c1)[C@H](Nc1ncc(C(C)O)c(C)n1)CC2 (stereo partly drawn) [Example 1.13] this time
100

----------
Give Herbicidal action against AVEFA for every item shown.
tested on: AVEFA: Avena fatua; test: Post-emergence herbicidal effect; format: in vivo; conditions: dosage 320 g/ha
Write the value in % as a bare number.

GET /values?readout=Herbicidal action against AVEFA&item= Cc1ccc2c(c1)[C@H](Nc1ncc([C@H](C)O)c(N)n1)[C@@H](C)C2 (racemic) [drawing 11, reference compound]
50

Now consider CC(C)(O)c1cnc(N[C@@H]2CCCc3ccccc32)nc1 and answer again.
100

What do you have for Cc1ccc2c(c1)[C@H](Nc1ncc(C(C)O)cn1)[C@@H](C)C2 (stereo partly shown) ?
80

Same question for Cc1ccc2c(c1)[C@H](Nc1ncc(C(C)(C)O)c(C)n1)[C@@H](C)C2 please.
100

----------
tested on: STEME: Stellaria media; assay: Pre-emergence herbicidal effect; assay type: in vivo; conditions: pre-emergence; dosage 320 g/ha
reported.property: Herbicidal action against STEME
Please report the result as a number followed by the unit.

# Herbicidal action against STEME lookup, item Cc1ccc2c(c1)[C@H](Nc1ncc(C(C)(C)O)cn1)[C@@H](C)C2 [Example 1.4]
100%

# repeat for Cc1ccc2c(c1)[C@H](Nc1ncc(C(C)O)c(C)n1)[C@@H](C)C2 (stereo partly drawn) [Example 1.7]
100%

Similarly, C#CC(C)(O)c1cnc(N[C@H]2c3cc(C)ccc3C[C@@H]2C)nc1 (stereo partly drawn) [Example 1.18] ?
100%

Source of measurements: patent US11477982B2
